- Tested on: HCV core protein (residues 1-106) dimerization
- Assay info: blockers of core106 self-association – biochemical, TR-FRET, high-throughput, primary screen (AID 1899)
- Condition parameters: TR-FRET GST/Flag-core106 dimerization, 1536-well; at 5 µM; hits give high values
Hit rate of the full screen: of about 300,000 compounds, about 1,000 (0.33%) were called active. Only a selection was taken, and actives are over-represented in it overall.
Listing of recorded inhibition by entry.
The figure you give is taken to be in %; do not add the unit.

Recorded inhibition, per entry:
CCCc1nc2c(c(=O)c3ccccc3n2C)c(=O)n1C1CCCCCC1 : 10.2
COC(=O)C1=C(C)NC2=C(C(=O)c3ccccc32)C1c1ccc(-c2ccc(C(=O)O)cc2)o1 (stereo not drawn) : 5.77

Look up inhibition with HCV core protein (residues 1-106) dimerization for this compound: `Cc1ccc(S(=O)(=O)NCCC(=O)OCC(=O)N(C)c2ccccc2)cc1`
-0.65

====

- System: HCV core protein (residues 1-106) dimerization
- Assay info: blockers of core106 self-association – biochemical, TR-FRET, high-throughput, primary screen (AID 1899)
- Condition parameters: TR-FRET GST/Flag-core106 dimerization, 1536-well; at 5 µM; hits give high values
About 1,000 (0.33%) of roughly 300,000 compounds were called active. The sample holds actives, similar compounds and a random draw of the others, so the mix is not that of the screen.
Measurement name: inhibition (%)
The figure you give is taken to be in %; do not add the unit.

O=S(=O)(Nc1ccc(O)c2ccccc12)c1ccc(OC(F)(F)F)cc1 : -9.45
Cc1cc(C)c2nc(N3CCCC3)c(C#N)cc2c1 : 51.7
C/C(=N\NC(=O)CC(C)C)c1c(C(F)(F)F)[nH]n(-c2nc3ccccc3s2)c1=O : -0.73
CCC(C)Cn1c(O)cc2nn(-c3nc4ccccc4s3)c(=O)c-2c1C (centres undefined) : 55.2
Cc1ccc(C(=O)Nc2cccc3ncccc23)cc1[N+](=O)[O-] : 4.3
CNc1nnc(-c2ccco2)s1 : -7.57

As a next step, examine the molecule that follows.
I have this molecule here, `CS(=O)(=O)C1=NN2C(=N)/C(=C\c3ccc(OCCOc4ccccc4)cc3)C(=O)N=C2S1` , and I need its recorded inhibition.
18.8

====

- System: HCV core protein (residues 1-106) dimerization
- Assay info: blockers of core106 self-association – biochemical, TR-FRET, high-throughput, primary screen (AID 1899)
- Condition parameters: TR-FRET GST/Flag-core106 dimerization, 1536-well; at 5 µM; hits give high values
In all, about 300,000 compounds went through this assay and about 1,000 (0.33%) were called active. The entries come from a sample that favours actives as a whole.
Listing of recorded inhibition by entry.
The figure you give is taken to be in %; do not add the unit.

COc1ccc(/C=C/C(=O)NC(=S)N2CCCC(C(N)=O)C2)cc1 (stereo not drawn) : -10.7
Cc1cc2nc3c(=O)n(Cc4ccccc4)c(=O)[nH]c3nc2cc1N : 7.8
Cc1ccc(NS(=O)(=O)c2c(C)[nH]c(=O)[nH]c2=O)cc1C : -1.79
CCOC(=O)CSc1nc2ccc(C)cc2n2cnnc12 : -1.27
O=C(CCc1ccccc1)Nc1ccc(NC(=O)C2CC2)nc1 : 3.25

As a next step, examine the compound that follows.
Look up inhibition with HCV core protein (residues 1-106) dimerization for this compound: C=CCOC(=O)C1=C(C)OC(N)=C(C#N)C1c1ccc(F)cc1 (stereo not drawn)
-4.37

====

Listing of recorded inhibition by entry.
- System: HCV core protein (residues 1-106) dimerization
- Assay info: blockers of core106 self-association – biochemical, TR-FRET, high-throughput, primary screen (AID 1899)
- Condition parameters: TR-FRET GST/Flag-core106 dimerization, 1536-well; at 5 µM; hits give high values
The whole screen tested about 300,000 compounds, of which about 1,000 (0.33%) were called active. This is one part of a sample in which actives are shown more often than they occur.
The figure you give is taken to be in %; do not add the unit.

Recorded inhibition, per entry:
COc1ccc(C(=O)c2c3ccc([N+](=O)[O-])cc3[n+]([O-])n2CCCN)cc1 : 1.89
O=C(C1CCCN(S(=O)(=O)c2ccccc2)C1)N1CCN(c2ccc(F)cc2)CC1 (configuration not stated) : -13.8
CCOC(=O)C1=C(C)NC(C)=C(C(=O)OCC)C1C1=COCCO1 : -7.86
COC(=O)c1ccc2c(=O)n(CCN3CCOCC3)c(SCC(=O)Nc3cccc(OC)c3)nc2c1 : -0.68

Look up inhibition with HCV core protein (residues 1-106) dimerization for this molecule: `Cc1cccc(NC(=O)CN2CCCN(S(=O)(=O)c3ccc(Br)s3)CC2)c1`
3.89

Look up inhibition with HCV core protein (residues 1-106) dimerization for this molecule: `O=C(NCc1cccs1)c1cc(-c2ccccn2)nc2ccc(Br)cc12`
49.3

====

- Tested on: HCV core protein (residues 1-106) dimerization
- Assay info: blockers of core106 self-association – biochemical, TR-FRET, high-throughput, primary screen (AID 1899)
- Condition parameters: TR-FRET GST/Flag-core106 dimerization, 1536-well; at 5 µM; hits give high values
Out of some 300,000 compounds screened, about 1,000 (0.33%) were called active. The list comes from a sample in which actives are over-represented; it also holds close analogues and randomly drawn compounds.
Measurement name: inhibition (%)
The figure you give is taken to be in %; do not add the unit.

CCOc1ccc(C(=O)Nc2ccncc2)cc1 : -4.79
CCOC(=O)CSC1=C(C#N)C(c2sccc2C)CC(=O)N1 (configuration not stated) : 6.38
CCC(Cc1ccccc1)NS(=O)(=O)c1ccc2c(c1)NC(=O)CS2 (configuration not stated) : 6.21

Look up inhibition with HCV core protein (residues 1-106) dimerization for this compound: `O=C(NNC(=S)NC(=O)c1cn(-c2ccccc2)nc1-c1ccccc1)c1ccncc1`
-3.87

Look up inhibition with HCV core protein (residues 1-106) dimerization for this compound: `CC(C)NC(=O)NC(=O)COC(=O)c1ccc(NC(=O)CC#N)cc1`
-2.82

Look up inhibition with HCV core protein (residues 1-106) dimerization for this compound: `Cc1ccc(NC(=O)c2c(NC(=O)CCC(=O)O)sc3c2CCCCC3)cc1`
47.6

Look up inhibition with HCV core protein (residues 1-106) dimerization for this compound: `CCOc1ccc(NC(=O)c2ccc(NC(=O)COC(=O)c3ccc(NC(=O)CC#N)cc3)cc2)cc1`
62.4

Look up inhibition with HCV core protein (residues 1-106) dimerization for this compound: Cc1cccc(C)c1NC(=O)CN1C(=O)C(C)Oc2ccccc21 (configuration not stated)
5.55

Look up inhibition with HCV core protein (residues 1-106) dimerization for this compound: `Cc1ccc(NC(=O)c2csc3c2CCCC3)cc1`
5.39

Look up inhibition with HCV core protein (residues 1-106) dimerization for this compound: `Cc1ccc(NC(=S)NC(=O)/C=C/c2ccc(Cl)cc2)cc1`
-5.71

Look up inhibition with HCV core protein (residues 1-106) dimerization for this compound: `COc1ccc(S(=O)(=O)N/N=C\c2ccc(OC)c(COc3ccc(C)cc3[N+](=O)[O-])c2)cc1`
56

Look up inhibition with HCV core protein (residues 1-106) dimerization for this compound: `CCCCCCCCCCCCCCCC(=O)OC/C=C(C)/C=C/C=C(C)/C=C/C1=C(C)CCCC1(C)C`
2.75

====

Listing of recorded inhibition by entry.
- System: HCV core protein (residues 1-106) dimerization
- Assay info: blockers of core106 self-association – biochemical, TR-FRET, high-throughput, primary screen (AID 1899)
- Condition parameters: TR-FRET GST/Flag-core106 dimerization, 1536-well; at 5 µM; hits give high values
Out of some 300,000 compounds screened, about 1,000 (0.33%) were called active. What follows is part of a selection rich in actives, with near analogues and random picks from the rest.
The figure you give is taken to be in %; do not add the unit.

Recorded inhibition, per entry:
COc1ccc(OCC(=O)NN2Cc3ccccc3C2=N)cc1 : -6.41
Cc1ccc(C(=O)N/C(=C/c2ccc(-c3cccc([N+](=O)[O-])c3)o2)C(=O)NCCCN(C)C)cc1 : -11.9
CCn1cc(C(=O)N2CC(C)CC(C)C2)c(=O)c2cc(S(=O)(=O)N3CCCC3)ccc21 (stereo unspecified) : -3.07
O=C(Cc1ccc(S(=O)(=O)N2CCCC2)s1)NC1CCCCCC1 : 48
C=CCC1(C#N)C(=S)NC(C)=C(C(=O)OCC)C1c1ccccc1 (stereo unspecified) : -0.47

I have this compound here, `COc1ccc(NC(=O)c2ccccc2CC[N+](=O)[O-])cc1` , and I need its recorded inhibition.
1.6

I have this compound here, N#CC1=C(N)Oc2c(sc3ccccc23)C1c1ccco1 (stereo unspecified) , and I need its recorded inhibition.
54.5

I have this compound here, `COc1ccc(S(=O)(=O)N2CCN(c3ncnc4c(-c5ccccc5)nsc34)CC2)cc1` , and I need its recorded inhibition.
5.78

I have this compound here, O=C(N=C1SC2CS(=O)(=O)CC2N1c1cc(Cl)ccc1Cl)C1CC1 (stereo unspecified) , and I need its recorded inhibition.
-2.57

I have this compound here, `COc1ccc(/C=N/N=C/c2c[nH]c(=O)c(C#N)c2Nc2ccccc2)cc1` , and I need its recorded inhibition.
9.36

I have this compound here, `O=C(N/N=C/c1ccc(O)cc1)/C(=C/c1ccc([N+](=O)[O-])cc1)NC(=O)c1ccccc1` , and I need its recorded inhibition.
10.4

I have this compound here, `Cc1ccc(OCC(=O)Nc2nnc(-c3ccco3)s2)cc1` , and I need its recorded inhibition.
2.47

These entries and their values trace back to PubChem BioAssay AID1899.
